Data credit: PubChem BioAssay AID1851

# system tested: Cytochrome P450 2D6 (Homo sapiens)
# experiment: Cytochrome panel assay with activity outcomes
# condition: recombinant CYP, pro-luciferin dealkylation, luminescence, p450-cyp2d6; series mostly up to 57.1 µM
The whole screen tested about 16,000 compounds, of which about 2,600 (16%) were called active. Another 20% or so got no clear call; they are omitted. The call rests on the fitted dose curve; in most records, active means well fitted curve in the direction sought with a large enough effect; inconclusive means small, poorly fitted or top-dose-only effect, or effect the other way; inactive means no such curve, though single readings can be large or run the other way. Only a sample is shown.
A correct response names exactly one class from t for active, f for inactive

Hi team, can someone confirm the assay call for "CC(C)CN1CCCC2(CCN(S(=O)(=O)c3ccccc3)CC2)C1" ?
f

Hi, do you know how "O=C(Oc1ccccc1)N1CCC2(CC1)CCN(c1cccc(-c3ccccc3)c1)CC2" came out in this test?
f

How was "N#Cc1nc(-c2ccc(OCc3ccccc3)cc2)oc1NCCN1CCOCC1" classified in this test?
f

Tell me the assay call for "N#Cc1nc(-c2cccs2)oc1NCc1ccccc1" please.
t

What classification did "CNc1oc(-c2cccs2)nc1C#N" end up with in this test?
f

Can you look up the reported call for "N#CC1=C(N)OC2=C(C(=O)CCC2)C12CCC1(CC2)OCCO1" for me?
f

----------
# system tested: Cytochrome P450 2D6 (Homo sapiens) (UniProt P10635)
# Sequence (P10635 whole entry, looked up): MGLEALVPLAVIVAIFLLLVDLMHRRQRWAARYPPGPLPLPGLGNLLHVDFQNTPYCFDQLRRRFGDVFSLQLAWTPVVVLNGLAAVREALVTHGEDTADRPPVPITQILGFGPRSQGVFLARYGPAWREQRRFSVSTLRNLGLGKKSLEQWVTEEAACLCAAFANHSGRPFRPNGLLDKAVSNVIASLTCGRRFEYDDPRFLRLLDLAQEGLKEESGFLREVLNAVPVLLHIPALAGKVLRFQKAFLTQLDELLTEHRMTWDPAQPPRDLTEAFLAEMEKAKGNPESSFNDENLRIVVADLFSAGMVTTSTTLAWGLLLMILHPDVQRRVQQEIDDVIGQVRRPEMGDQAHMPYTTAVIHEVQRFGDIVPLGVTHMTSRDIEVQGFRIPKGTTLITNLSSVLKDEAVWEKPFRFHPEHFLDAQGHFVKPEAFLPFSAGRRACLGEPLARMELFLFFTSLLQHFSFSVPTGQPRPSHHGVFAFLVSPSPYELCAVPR
# experiment: Cytochrome panel assay with activity outcomes
# condition: recombinant CYP, pro-luciferin dealkylation, luminescence, p450-cyp2d6; series mostly up to 57.1 µM
Among all 16,000 compounds or so, about 2,600 (16%) were called active. About 20% were inconclusive and are not listed. The call rests on the fitted dose curve; in most records, active means well fitted curve in the direction sought with a large enough effect; inconclusive means small, poorly fitted or top-dose-only effect, or effect the other way; inactive means no such curve, though single readings can be large or run the other way. These entries were drawn from the full list.
Select the matching outcome among active, inactive

Would you please look over these solved cases?
INSERT INTO measurements (molecule, assigned_class) VALUES
  ('CS(=O)(=O)Nc1cccc(-c2nc(NCc3cccnc3)c3ccccc3n2)c1', 'active'),
  ('CS(=O)(=O)Nc1cccc(-c2nc(NCc3ccccc3)c3ccccc3n2)c1', 'active'),
  ('Cc1cccc2c(SCC(=O)NCC3CCCO3)nc(-c3ccc(F)cc3)nc12 (stereo not given)', 'inactive');

Could you please tell me the result logged for "CCN(CC)S(=O)(=O)c1cccc(C(=O)N[C@H](C(=O)OCC(=O)NC(=O)NC)C(C)C)c1" in this assay?
inactive

Hi, sorry to bother you, what did the test record for Cc1ccc(-n2ccnc2SCC(=O)N(CC(C)C)C2CCS(=O)(=O)C2)c(C)c1 (stereo not given) ?
inactive

----------
Reported activity, negative = inhibition values for the following compounds.
# system tested: Cytochrome P450 2D6 (Homo sapiens) (UniProt P10635)
# experiment: Cytochrome panel assay with activity outcomes; on activity, negative = inhibition: on the % scale 0 is the no-effect control and ±100 the full control effect
# condition: recombinant CYP, pro-luciferin dealkylation, luminescence, p450-cyp2d6; series mostly up to 57.1 µM
Among all 16,000 compounds or so, about 2,600 (16%) were called active. Another 20% or so got no clear call; they are omitted. These entries were drawn from the full list.

INSERT INTO measurements (structure_string, measurement_kind, result) VALUES
  ('CC(=O)OC[C@@H]1O[C@H](C/C=N\OC[C@@H](O)COCc2ccco2)C=C[C@@H]1OC(C)=O', 'activity, negative = inhibition', '-5.26% [at 11.4 µM] (inactive)'),
  ('O=P(O)(CCP(=O)(O)c1ccccc1)c1ccccc1', 'activity, negative = inhibition', '0.684% [at 11.4 µM] (inactive)'),
  ('CC(C)=CCC/C(C)=C/CO/N=C1/C[C@@H](O)[C@@H](O)[C@@H]2[C@@H]3C(=O)N(Cc4ccc5c(c4)OCO5)C(=O)[C@H]3CC[C@H]12', 'activity, negative = inhibition', '-10.1% [at 11.4 µM] (inactive)'),
  ('CC(=O)OC[C@@H]1O[C@H](C/C=N\O[C@@H](C)c2cn([C@H]3COC[C@H]3O)nn2)C=C[C@@H]1OC(C)=O', 'activity, negative = inhibition', '10.3% [at 11.4 µM] (inactive)'),
  ('Cc1ccc2nc(CC(=O)c3ccc4ccccc4c3)c(=O)[nH]c2c1', 'activity, negative = inhibition', '-4.59% [at 11.4 µM] (inactive)'),
  ('Cc1cc(N)c2cc(NC(=O)Nc3ccc4nc(C)cc(N)c4c3)ccc2n1', 'activity, negative = inhibition', '7.45% [at 11.4 µM] (inactive)'),
  ('O=C(O)CCCSc1nc2ccccc2s1', 'activity, negative = inhibition', '-8.66% [at 11.4 µM] (inactive)'),
  ('CCC[C@H](Sc1nc(N)nc2nc[nH]c12)C(=O)O', 'activity, negative = inhibition', '1.31% [at 11.4 µM] (inactive)'),
  ('O=C(O)CN(CCN(CC(=O)O)CC(=O)O)CC(=O)O.[Cu]', 'activity, negative = inhibition', '2.44% [at 11.4 µM] (inactive)');

Look at this compound and give its reported activity, negative = inhibition. "Cc1ccc(-c2nnc(-c3ccc4ccccc4c3)o2)cc1"
3.58% [at 11.4 µM] (inactive)
